# assaySystem: T1, Cynomolgous B7-H3 on cells (cynomolgus)
# T1 construct: whole, on cells; also called cyno B7-H3; cyB7-H3
# assayMethodText: FACS
property: EC50

Task item: GET /values?readout=EC50&item= huAb13v1 (antibody, human IgG1, kappa, L234A L235A, V domains shown, Ig gamma-1 mutant / kappa) VH: EVQLQESGPGLVKPSETLSLTCAVTGYSITSGYSWHWIRQFPGNGLEWMGYIHSSGSTNYNPSLKSRISISRDTSKNQFFLKLSSVTAADTAVYYCAGYDDYFEYWGQGTTVTVSS VL: DIQMTQSPSSLSASVGDRVTITCKASQNVGFNVAWYQQKPGKSPKALIYSASYRYSGVPSRFSGSGSGTDFTLTISSLQPEDFAEYFCQQYNWYPFTFGQGTKLEIKR
Reply: 10 nM

Values compiled from patent US20200002421A1.
